target-or-test-system: T1, human ROR1 on live cells (human, UniProt Q01973 30-937)
T1 construct: ROR1-transfected MEC cells (~56,000 copies/cell) or JeKo-1 cells (~13,000 copies/cell); the cell line is named under assay; also called ROR1-transfected MEC cells; JeKo-1 cells
T1 sequence (Q01973 30-937 limits assumed): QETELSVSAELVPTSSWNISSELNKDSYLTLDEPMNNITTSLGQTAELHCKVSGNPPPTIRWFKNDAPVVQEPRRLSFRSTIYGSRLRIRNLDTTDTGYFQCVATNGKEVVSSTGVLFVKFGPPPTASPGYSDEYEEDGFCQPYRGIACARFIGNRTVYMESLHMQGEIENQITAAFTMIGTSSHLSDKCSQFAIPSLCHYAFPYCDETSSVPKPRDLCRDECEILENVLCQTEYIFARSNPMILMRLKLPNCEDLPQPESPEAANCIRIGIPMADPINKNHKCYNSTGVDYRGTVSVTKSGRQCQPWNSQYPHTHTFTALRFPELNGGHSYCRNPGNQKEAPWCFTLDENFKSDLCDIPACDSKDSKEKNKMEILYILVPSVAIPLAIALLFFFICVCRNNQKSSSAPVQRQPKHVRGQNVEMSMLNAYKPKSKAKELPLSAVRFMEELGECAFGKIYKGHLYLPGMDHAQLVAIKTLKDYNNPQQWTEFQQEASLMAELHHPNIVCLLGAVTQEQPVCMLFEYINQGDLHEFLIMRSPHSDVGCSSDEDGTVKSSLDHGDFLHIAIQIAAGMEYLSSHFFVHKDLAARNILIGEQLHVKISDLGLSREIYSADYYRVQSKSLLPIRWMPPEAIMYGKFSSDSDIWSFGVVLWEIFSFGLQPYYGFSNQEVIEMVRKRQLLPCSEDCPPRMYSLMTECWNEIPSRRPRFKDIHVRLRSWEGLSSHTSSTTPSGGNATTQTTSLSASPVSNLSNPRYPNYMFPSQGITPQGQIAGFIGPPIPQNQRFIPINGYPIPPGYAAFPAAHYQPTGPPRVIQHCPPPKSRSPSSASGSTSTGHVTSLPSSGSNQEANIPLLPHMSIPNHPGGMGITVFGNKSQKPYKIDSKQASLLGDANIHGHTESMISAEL
test-method-notes: flow cytometry on live JeKo-1 cells, Fab detected with anti-HA-PE
readout-type: EC50 (read off the curve)

| binder | readout-type | reading |
| --- | --- | --- |
| Ab1 Fab variant H1 T32A + L2 T69R, Q71T (Fab, V domains shown, Fab) VH: QVQLQESGPGLVKPSQTLSLTCTVSGYAFAAYNIHWVRQAPGQGLEWMGSFDPYDGGSSYNQKFKDRLTISKDTSKNQVVLTMTNMDPVDTATYYCARGWYYFDYWGHGTLVTVSS VL: DIVMTQTPLSLPVTPGEPASISCRASKSISKYLAWYQQKPGQAPRLLIYSGSRLTSGIPPRFSGSGYGTDFTLTINNIESEDAAYYFCQQHDESPYTFGEGTKVEIK | EC50 (read off the curve) | ~1 nM |

### Prompt # lookup: EC50 (read off the curve) of Ab1 Fab variant H1 T32A + L1 K29S + L2 T69R (Fab, V domains shown, Fab) VH: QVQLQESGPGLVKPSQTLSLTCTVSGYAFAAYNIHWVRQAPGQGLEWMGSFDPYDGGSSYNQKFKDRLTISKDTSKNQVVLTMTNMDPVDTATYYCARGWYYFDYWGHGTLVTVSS VL: DIVMTQTPLSLPVTPGEPASISCRASSSISKYLAWYQQKPGQAPRLLIYSGSRLQSGIPPRFSGSGYGTDFTLTINNIESEDAAYYFCQQHDESPYTFGEGTKVEIK
### Response ~1 nM

### Prompt # lookup: EC50 (read off the curve) of Ab1 Fab variant H1 T32A (Fab, V domains shown, Fab) VH: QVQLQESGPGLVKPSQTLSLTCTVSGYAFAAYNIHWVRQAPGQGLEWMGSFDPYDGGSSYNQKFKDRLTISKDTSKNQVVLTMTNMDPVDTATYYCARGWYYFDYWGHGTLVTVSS VL: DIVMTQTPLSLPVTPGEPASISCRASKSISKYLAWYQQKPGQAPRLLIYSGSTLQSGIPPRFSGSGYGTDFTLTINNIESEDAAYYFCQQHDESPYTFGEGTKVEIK
### Response ~2 nM

### Prompt # lookup: EC50 (read off the curve) of Ab1 Fab (Fab, V domains shown, Soluble Fab from an M13 phage vector in E. coli: VL + kappa constant region, VH + human CH1 + His and HA tags; also called WT; parental Fab) VH: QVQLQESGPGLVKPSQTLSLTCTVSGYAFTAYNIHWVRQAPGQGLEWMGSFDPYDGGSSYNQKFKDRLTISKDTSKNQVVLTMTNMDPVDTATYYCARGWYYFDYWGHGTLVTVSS VL: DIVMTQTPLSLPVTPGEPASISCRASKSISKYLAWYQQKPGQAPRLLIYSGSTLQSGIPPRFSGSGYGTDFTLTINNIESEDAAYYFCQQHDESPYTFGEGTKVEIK
### Response ~10 nM
